- method.description: qHTS Assay for Lipid Storage Modulators (AID 1519)
- run.conditions: Drosophila S3 cells, BODIPY lipid droplet/cell ratio, laser cytometry; measured here: cell count channel max response; cells loaded with oleic acid
Results filed as inconclusive are left out.
Each entry below carries its reported max response.

Observe how each entry below is paired with its result.
# molecule, max response
measured = [
    ("Cc1ccc(S(=O)(=O)N[C@@H](CCCCN)C(=O)CCl)cc1", "1.11%"),
    ("NCC(O)c1ccc(O)cc1 (stereo not drawn)", "15.4%"),
]

Next up:
QUERY: Give its max response value. Item: Oc1cccc2cccnc12
RESULT: -2.95%

====

- method.description: qHTS of pediatric cancer cell lines to identify multiple opportunities for drug repurposing: Primary screen for LAN-5 cells (AID 1347100)
- run.conditions: LAN-5 neuroblastoma viability, CellTiter-Glo luminescence, 48 h; series mostly up to 46 µM
Inconclusive results are not listed. Calls of active or inactive are those of the source. Calls follow the shape of the dose curve; as a rule, active = well fitted cell-killing curve with a large enough effect; inconclusive = small, poorly fitted or top-dose-only effect; inactive = no such curve, though single readings can be large or run the other way.
Bench note: report the call from active, inactive

Answered cases to consult:
# molecule, class.label
records = [
    ("CN(C)[C@@H]1C(=O)C(C(N)=O)=C(O)[C@@]2(O)C(=O)C3=C(O)c4c(O)cccc4[C@@](C)(O)[C@H]3C[C@@H]12", "inactive"),
    ("C[C@H]1O[C@@H](O[C@H]2[C@@H](O)C[C@H](O[C@H]3[C@@H](O)C[C@H](O[C@H]4CC[C@@]5(C)[C@H](CC[C@@H]6[C@@H]5CC[C@]5(C)[C@@H](C7=CC(=O)OC7)CC[C@]65O)C4)O[C@@H]3C)O[C@@H]2C)C[C@H](O)[C@@H]1O", "active"),
    ("Cc1ccc(S(=O)(=O)N[C@@H](CCCCN)C(=O)CCl)cc1", "inactive"),
    ("CN(C)CCN(C)CCc1ccc(Cl)c(Cl)c1", "inactive"),
    ("NCC1(CC(=O)O)CCCCC1", "inactive"),
    ("NP(N)(=O)NC(=O)c1ccc(F)cc1", "inactive"),
    ("COc1ccc(C(CN(C)C)C2(O)CCCCC2)cc1 (stereo unspecified)", "inactive"),
    ("CC(=O)[C@H]1CC[C@H]2[C@@H]3CC[C@H]4C[C@H](O)CC[C@]4(C)[C@H]3C(=O)C[C@]12C", "inactive"),
    ("CNC(=O)N1N=C(c2ccc(N)cc2)c2cc3c(cc2CC1C)OCO3 (stereo unspecified)", "active"),
    ("COC[C@@H](NC(C)=O)C(=O)NCc1ccccc1", "inactive"),
]

Next molecule, please.
QUERY: In this assay, the call recorded for O=P1(NCCCl)OCCCN1CCCl (stereo unspecified) was what?
RESULT: inactive
